Measured values drawn from patent US5264432A for this set.

- System: CaCl2 arrhythmia of the rat
- protocol-summary: CaCl2 arrhythmia of the rat (antifibrillatory effect)
- protocol-conditions: ratio LD50 iv./ED50 iv.
metric: Q = LD50/ED50 (therapeutic breadth)
Response field accepts a number only; no unit should be typed.

Solved entries (count: 3):
INSERT INTO assay_data (smiles_record, experimental_system, metric, reported) VALUES
  ('O=C1Nc2cc(Cl)ccc2N(C(=O)CCCCCCN2CCOCC2)c2ccccc21', 'CaCl2 arrhythmia of the rat', 'Q = LD50/ED50 (therapeutic breadth)', 256),
  ('CCN(CC)CCCC(=O)N1c2ccc(Cl)cc2NC(=O)c2ccccc21', 'CaCl2 arrhythmia of the rat', 'Q = LD50/ED50 (therapeutic breadth)', 1614),
  ('CN(C)CCCCCC(=O)N1c2ccccc2NC(=O)c2ccccc21', 'CaCl2 arrhythmia of the rat', 'Q = LD50/ED50 (therapeutic breadth)', 207);

Okay, next one:
compound CCN(CC)CCCCCC(=O)N1c2ccc(Cl)cc2NC(=O)c2ccccc21 , Q = LD50/ED50 (therapeutic breadth) observed: 86

---

- protocol-summary: in vivo
- protocol-conditions: rat, iv, i.v. tail vein, Wistar rats, parentheses = confidence interval p=0.05, read-out: LD50 i.v., acute toxicity of the rat
metric: LD50 (mg/kg)
The response must be a number in mg/kg with no trailing unit.

Solved entries (count: 2):
INSERT INTO results (smiles_record, metric, reported) VALUES
  ('CN(C)CCCCCC(=O)N1c2ccccc2NC(=O)c2ccccc21', 'LD50', 85),
  ('O=C1Nc2cc(Cl)ccc2N(C(=O)CCCCCCN2CCOCC2)c2ccccc21', 'LD50', 41);

compound CCN(CC)CCCCCC(=O)N1c2ccc(Cl)cc2NC(=O)c2ccccc21 , LD50 observed: 38

compound CCN(CC)CCCC(=O)N1c2ccc(Cl)cc2NC(=O)c2ccccc21 , LD50 observed: 71
